Target: T1, Biotin Y46,48,51(SO3) PSGL-1(42-62) peptide (human, sulfotyrosine at Y46, Y48 and Y51; C-terminal Lys-biotin)
T1 construct: also called fully sulfated N-terminal PSGL-1 peptide
T1 peptide: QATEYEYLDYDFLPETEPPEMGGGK
Experiment: capture ELISA; against 3 x sY peptide
EXPERIMENTAL ENDPOINT: EC50/EC50 3x(SO3)Y
Put down the number, then write its unit next to it.

Input: Bench note: what EC50/EC50 3x(SO3)Y did 10F01 (antibody, IgG4, V domains shown) VH: EVQLVQSGGGLVQPGGSLRLSCAASGFTFSSYAMSWVRQAPGKGLEWVSALRGGDGGTYHADSVKGRFTISGDSSKNTLYLQMNSLRAEDTAVYYCARRMVGAAYAFDIWGQGTMVTVSS VL: LPVLTQPHSVSESPGKTVTISCTRSSGSIADNFVQWYRQRPGSAPTTVIYEGDQRPSGVPGRFSGSIDSSSNSASLTISGLQTDDEADYYCQSFDSYNRRTHVVFGGGTKLTVL show?
Output: 1 fold
